Some compounds, each annotated with its measured growth.
System: PC-3 prostate
assay_overview: NCI-60 one-dose screen, 48 h (100 = growth as untreated, 0 = no growth, -100 = all killed)
test_conditions: 10 µM unless noted
About 83,000 compounds went through this panel and 20% of them were active in at least one assay; those are over-represented in the sample as a whole.
Report as a plain number; the unit % is understood.

Sample records with growth:
OCCNCCCOc1ccc2ncnc(Nc3ccc(Oc4cccc(C(F)(F)F)c4)c(Cl)c3)c2c1 | 30.5
O=CC1(C2(C=O)c3ccccc3-c3ccccc32)c2ccccc2-c2ccccc21 | -64.5
CC(=O)[C@@H]1CCC=C2CC[C@]3(C)[C@@H](CC[C@@H]4[C@@]5(C)CCCNC(C)(C)[C@@H]5CC[C@]43C)[C@H]21 | -21.4

Continue with the next compound.
Exam item: Form entry - test system: PC-3 prostate; read-out: growth; compound: `CCCCN[C@H]1CC[C@@]2(C)[C@@H](CC[C@@]3(C)[C@H]2[C@H](O)C[C@H]2/C(=C(\CCC=C(C)C)C(=O)OC)[C@@H](OC(C)=O)C[C@@]23C)[C@@H]1C`
Marked response: 95.2

Ref: PubChem BioAssay (NCI)
